B1: SEC22B (parent)
chain: AKQLFRKLNEQSPTRCTLEAGAMT

Variants of: B1
Test Name: protein stability index of a GFP-peptide fusion (GPS, HEK-293T) (PSI 1-6); higher = more stable;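 note: lentivirally expressed fusions sorted by FACS into six bins by GFP to DsRed ratio, PSI derived from sequencing read proportions per bin multiplied by bin number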
Measurement Parameters: c terminus: a fixed tail appended
# protein stability index annotations
Readout Kind: protein stability index

variant_designation=E19R readout_kind="protein stability index" numeric_readout=2.49
variant_designation=M23V readout_kind="protein stability index" numeric_readout=1.81
variant_designation=K7S readout_kind="protein stability index" numeric_readout=2.31
variant_designation=G21L readout_kind="protein stability index" numeric_readout=2.12
variant_designation=L4R readout_kind="protein stability index" numeric_readout=2.96
variant_designation=L8Q readout_kind="protein stability index" numeric_readout=3.08
variant_designation=F5C readout_kind="protein stability index" numeric_readout=2.55
variant_designation=L18W readout_kind="protein stability index" numeric_readout=1.94
variant_designation=P13K readout_kind="protein stability index" numeric_readout=1.88
variant_designation=C16W readout_kind="protein stability index" numeric_readout=2.52
variant_designation=E10A readout_kind="protein stability index" numeric_readout=1.88
variant_designation=R15Q readout_kind="protein stability index" numeric_readout=3.55
variant_designation=L8F readout_kind="protein stability index" numeric_readout=2
variant_designation=A1M readout_kind="protein stability index" numeric_readout=1.6
variant_designation=P13G readout_kind="protein stability index" numeric_readout=1.96
variant_designation=Q3M readout_kind="protein stability index" numeric_readout=1.94
variant_designation=M23N readout_kind="protein stability index" numeric_readout=2.61
variant_designation=M23Y readout_kind="protein stability index" numeric_readout=2.37
variant_designation=Q3A readout_kind="protein stability index" numeric_readout=2.2
variant_designation=E19G readout_kind="protein stability index" numeric_readout=2.12
variant_designation=L18P readout_kind="protein stability index" numeric_readout=3.24
variant_designation=T17E readout_kind="protein stability index" numeric_readout=3.23
